- Test system: Rat2 parental cells
- test: Cell proliferation assay using FACS, parental cells
- Format: cell-based, rat
- conditions_used: 72 h with inhibitor, cells counted by FACS, read-out: Relative IC50

smi	IC50
Cc1nc2cc(-n3ncc(C(=O)c4cc5ccccc5[nH]4)c3N)ccc2[nH]1	> 1020 nM

====

- System: Rat2 parental cells
- conditions_used: read-out: Relative IC50, 72 h with inhibitor, cellular ATP content (Cell Titer Glo)
quantity_name: IC50

smi	target	data_value
Cc1nc2cc(-n3ncc(C(=O)c4cc5ccccc5[nH]4)c3N)ccc2[nH]1	Rat2 parental cells	> 3000 nM
